Recorded values, source patent US20070166547A1.

# System: plasma hemostasis
# ASSAY_PROTOCOL: Partial activated thromboplastin time (PATT) after intravenous administration
# Format: in vivo, rabbit
# EXPERIMENTAL_CONDITIONS: dose 60.0 mg/kg intravenously
PARAMETER_MEASURED: T, s after 30 minutes (PATT)

smiles_code=Nc1ccnc2c(=O)n([C@@H]3O[C@H](CO)[C@@H](O)[C@H]3O)[nH]c(=O)c12 parameter_measured="T, s after 30 minutes (PATT)" val="32.4 ± 0.1 s"
smiles_code=O=c1[nH][nH]c(=O)c2c(Br)ncnc12.[K] parameter_measured="T, s after 30 minutes (PATT)" val="32.3 ± 0.2 s"
smiles_code=Nc1cnc2c(=O)n([C@@H]3O[C@H](CO)[C@@H](O)[C@H]3O)[nH]c(=O)c2n1.[Na] parameter_measured="T, s after 30 minutes (PATT)" val="32.1 ± 0.2 s"
smiles_code=Nc1cccc2c(=O)[nH][nH]c(=O)c12.[Na] parameter_measured="T, s after 30 minutes (PATT)" val="32.2 ± 0.1 s"
